Test system: MS2 coat protein
Assay: apparent KD of MS2 coat protein; designed switch direction (-1 OFF switch, 1 ON switch): 1; higher = weaker reporter binding
Settings: Eterna round: R95; input ligand: FMN 200 uM
Class True: apparent KD of MS2 coat protein at least 40 nM. Class False: apparent KD of MS2 coat protein below 40 nM.

Answered cases to consult:
sequenceCode: GGAGCCGGCACUGAGGAUAUUCAUAUUUAAACAUGAGGAUCACCCAUGUAGGCCAGAAGGCCUUGGGAGAAGGCAGGUCGGCUCU [salish99_ss2_r3_077] (puzzle: Same State 2)
cat: False

sequenceCode: AGUCCAGCCUGAGCUGGACAAAAGCAUGUACAUGAGGAUCACCCAUGUUCAUGUACAAGCUUUUUGCUCGUCUAAAG [Mat - hsa-mir-208a - Mod of JL - 66] (puzzle: Sensor for hsa-mir-208a)
cat: True

sequenceCode: AAAGUACAUGAGGAUCACCCAUGUCCAAACAAGUAAGGAUAUACGAAAACAAAACAAAAUGUAGAAGGUACAACAA [Same State 1 #2] (puzzle: Same State 1)
cat: False

sequenceCode: AGUCCAGCCUGAGCUGGACAAAAGCAUGUACAUGAGGAUCACCCAUGUUCAUGUACAAGCUUUUUGCUCGUCUUGCG [salish99_208a_r3_106x] (puzzle: Sensor for hsa-mir-208a)
cat: True

sequenceCode: AGCGAAAUAAGCAAGGAUAUGUAAUUUGGCACAUGAGGAUCACCCAUGUCAAUCCAUUUUUUUGAACAGAAGGUGCAUUUUUUUU [ak second] (puzzle: Same State 2)
cat: True

sequenceCode: AUAAAACAUGAGGAUCACCCAUGUCAACAAAGUCGAGGAUAUGGGCAAAUAAAAUAAGAACCAGAAGGCGAAUAAG [salish99_SS1_r3_004] (puzzle: Same State 1)
cat: False

Enquiry: Reported apparent KD of MS2 coat protein reaches at least 40 nM for UUAAGCCGCGGGCAGGAUAUGUAUUAAAAUACAUGAGGAUCACCCAUGUGCAGGUGUAACACCUGACAGAAGGGCCAAUCGCGGC [Soteed - 5] (puzzle: Same State 2) ?
Return: False

Enquiry: Reported apparent KD of MS2 coat protein reaches at least 40 nM for UGUUAACAUGAGGAUCACCCAUGUCAAAUGAAUCGAGGAUAUGGGAAGGAAGAAGAGAAACUAGAAGGCGAAGUUG [Altered State 1-4 - Jieux - Same State 1] (puzzle: Same State 1) ?
Return: True

Enquiry: Reported apparent KD of MS2 coat protein reaches at least 40 nM for GCCGCACAUGAGGAUCACCCAUGUAAUUACAUGGGAGGAUAUCAGUGCUCGAAAGAGCACUGAGAAGGCCUAAGGC [SS1 - Omei A] (puzzle: Same State 1) ?
Return: True

Enquiry: Reported apparent KD of MS2 coat protein reaches at least 40 nM for AAAGCCCGUGCUAAGGAUAUGCGUACUCCUACAUGAGGAUCACCCAUGUCCCGCCGAAAAGGAAGGCAGAAGGUAGCACGGGCAA [Letiso] (puzzle: Same State 2) ?
Return: True

Enquiry: Reported apparent KD of MS2 coat protein reaches at least 40 nM for AGUCCAGCCUGAGCUGGACAAAAGCAUGUACAUGAGGAUCACCCAUGUCAUGUACAAGCUUUUUGCUCGUCUUAAUA [Mat - hsa-mir-208a - Mod of JL - D44] (puzzle: Sensor for hsa-mir-208a) ?
Return: True

Enquiry: Reported apparent KD of MS2 coat protein reaches at least 40 nM for AACAAUCUAUCUGAGGAUAUCAUGAAAUAAACAUGAGGAUCACCCAUGUGCAGGAAAACUGUAUAUGAGAAGGCAGAUAGAUUGA [salish99_ss2_r3_046] (puzzle: Same State 2) ?
Return: False
